- condition: in methanol, 293.15 K
property_label: solubility (mole fraction)
Answer with a bare number; do not write a unit.

Name the reported solubility (mole fraction) value associated with the compound "O=C1CCc2cc(OCCCCc3nnnn3C3CCCCC3)ccc2N1"
0.000955

====

- condition: in n-propanol, 283.15 K
property_label: solubility (mole fraction)
Please state the value as a number alone, without comment.

Reported solubility (mole fraction) for "O=C1CCc2cc(OCCCCc3nnnn3C3CCCCC3)ccc2N1" : what is it?
0.000487

====

- condition: in n-propanol, 313.15 K
property_label: solubility (mole fraction)
// return a plain number; no unit text

# query: solubility (mole fraction) of entry "O=C1CCc2cc(OCCCCc3nnnn3C3CCCCC3)ccc2N1"
0.0016

====

- condition: in methanol, 283.15 K
property_label: solubility (mole fraction)

Item under review: "O=C1CCc2cc(OCCCCc3nnnn3C3CCCCC3)ccc2N1" . Reported solubility (mole fraction)?
0.000573

====

- condition: in 1,4-dioxane, 298.15 K
property_label: solubility (mole fraction)

Returns the measured solubility (mole fraction) for the input compound. Input: "O=C1CCc2cc(OCCCCc3nnnn3C3CCCCC3)ccc2N1"
0.00708

====

- condition: in 2-butanone, 273.15 K
property_label: solubility (mole fraction)

What value of measured solubility (mole fraction) is listed for "O=C1CCc2cc(OCCCCc3nnnn3C3CCCCC3)ccc2N1" ?
0.00289

====

- condition: in acetonitrile, 293.15 K
property_label: solubility (mole fraction)
Kindly provide the number alone.

I am curious: what solubility (mole fraction) value has been reported for "O=C1CCc2cc(OCCCCc3nnnn3C3CCCCC3)ccc2N1" ?
0.00119

====

- condition: in methanol, 303.15 K
property_label: solubility (mole fraction)
API doc: respond with a numeric literal and nothing else, no unit.

I'd like to know its solubility (mole fraction). The compound in question is "O=C1CCc2cc(OCCCCc3nnnn3C3CCCCC3)ccc2N1"
0.00141

====

- condition: in n-propanol, 273.15 K
property_label: solubility (mole fraction)

For the compound "O=C1CCc2cc(OCCCCc3nnnn3C3CCCCC3)ccc2N1" , what solubility (mole fraction) is on record?
0.000206

====

- condition: in 2-butanone, 308.15 K
property_label: solubility (mole fraction)
Just the number.

Fill in the blank: the reported solubility (mole fraction) of "O=C1CCc2cc(OCCCCc3nnnn3C3CCCCC3)ccc2N1" is ____.
0.00774

====

- condition: in ethanol, 283.15 K
property_label: solubility (mole fraction)
Output: the number by itself.

Item "O=C1CCc2cc(OCCCCc3nnnn3C3CCCCC3)ccc2N1" has what recorded solubility (mole fraction)?
0.000406

====

- condition: in ethanol, 273.15 K
property_label: solubility (mole fraction)
Respond numerically, and do not add a unit to the figure.

Quick check: solubility (mole fraction) of "O=C1CCc2cc(OCCCCc3nnnn3C3CCCCC3)ccc2N1" ?
0.000168

====

- condition: in 1,4-dioxane, 293.15 K
property_label: solubility (mole fraction)
Please reply with the value in numeric form only.

Fill in: solubility (mole fraction) of "O=C1CCc2cc(OCCCCc3nnnn3C3CCCCC3)ccc2N1" is ___
0.0061

====

- condition: in acetone, 303.15 K
property_label: solubility (mole fraction)

Entry "O=C1CCc2cc(OCCCCc3nnnn3C3CCCCC3)ccc2N1" : reported solubility (mole fraction) = ?
0.00433

====

- condition: in methanol, 313.15 K
property_label: solubility (mole fraction)
Answer using only a numeral; do not append any unit.

// lookup solubility (mole fraction) for "O=C1CCc2cc(OCCCCc3nnnn3C3CCCCC3)ccc2N1"
0.00193

====

- condition: in acetone, 273.15 K
property_label: solubility (mole fraction)
Keep the answer to the number alone.

Reported solubility (mole fraction), compound "O=C1CCc2cc(OCCCCc3nnnn3C3CCCCC3)ccc2N1" : ____
0.00168

====

- condition: in 1,4-dioxane, 308.15 K
property_label: solubility (mole fraction)
Please reply with the value in numeric form only.

solubility (mole fraction) for "O=C1CCc2cc(OCCCCc3nnnn3C3CCCCC3)ccc2N1" ?
0.0095

====

- condition: in ethyl acetate, 298.15 K
property_label: solubility (mole fraction)

Item "O=C1CCc2cc(OCCCCc3nnnn3C3CCCCC3)ccc2N1" has what recorded solubility (mole fraction)?
0.000704

====

- condition: in ethyl acetate, 303.15 K
property_label: solubility (mole fraction)
Could you keep your reply to the number by itself?

# query: solubility (mole fraction) of entry "O=C1CCc2cc(OCCCCc3nnnn3C3CCCCC3)ccc2N1"
0.000861

====

- condition: in ethyl acetate, 273.15 K
property_label: solubility (mole fraction)
Kindly provide the number alone.

Find the recorded solubility (mole fraction) belonging to "O=C1CCc2cc(OCCCCc3nnnn3C3CCCCC3)ccc2N1" and report it.
0.000115

====

- condition: in acetonitrile, 303.15 K
property_label: solubility (mole fraction)
Respond with the number and no other words.

// returns reported solubility (mole fraction) for input "O=C1CCc2cc(OCCCCc3nnnn3C3CCCCC3)ccc2N1"
0.00187

====

- condition: in acetone, 298.15 K
property_label: solubility (mole fraction)
No unit in the answer, please; the number alone is enough.

Using the record for "O=C1CCc2cc(OCCCCc3nnnn3C3CCCCC3)ccc2N1" , report its solubility (mole fraction).
0.00381

====

- condition: in methanol, 308.15 K
property_label: solubility (mole fraction)
When you answer, write just the number.

Name the reported solubility (mole fraction) value associated with the compound "O=C1CCc2cc(OCCCCc3nnnn3C3CCCCC3)ccc2N1"
0.00166

====

- condition: in n-butanol, 293.15 K
property_label: solubility (mole fraction)
Hey, just send me the number, nothing else.

Please look up its solubility (mole fraction): "O=C1CCc2cc(OCCCCc3nnnn3C3CCCCC3)ccc2N1"
0.0015
